# Assay System: Adenosine receptor A2a (Homo sapiens)
# Sequence (P29274 whole entry): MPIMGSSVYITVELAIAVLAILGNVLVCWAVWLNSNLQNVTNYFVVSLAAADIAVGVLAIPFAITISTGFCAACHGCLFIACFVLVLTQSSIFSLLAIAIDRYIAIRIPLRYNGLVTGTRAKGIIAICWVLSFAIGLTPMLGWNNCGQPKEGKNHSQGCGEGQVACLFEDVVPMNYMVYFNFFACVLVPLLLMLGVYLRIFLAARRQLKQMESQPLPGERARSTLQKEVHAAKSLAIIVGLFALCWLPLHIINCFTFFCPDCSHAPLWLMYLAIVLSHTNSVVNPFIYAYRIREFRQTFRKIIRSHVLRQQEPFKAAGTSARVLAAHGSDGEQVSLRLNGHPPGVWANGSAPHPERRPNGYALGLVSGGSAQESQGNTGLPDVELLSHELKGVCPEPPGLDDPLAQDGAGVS
# Assay Protocol: biochemical
# Description: Binding affinity against Adenosine A2a receptor labeled by [3H]ZM-241385 in membranes prepared from HEK-A2A cells
Readout Name: Ki (nM)
Record the value in nM, omitting the unit from your answer.

**Q:** # query: Ki of entry `CCCn1c(=O)c2[nH]c(-c3ccc(OCc4noc(-c5ccccc5OC)n4)cc3)nc2n(CCC)c1=O`
**A:** 23

----------
Quick note: these are pKi numbers for system: Adenosine receptor A2b (Homo sapiens)
Quick note: pKi means taking -log10 of the concentration in moles per liter.

| Structure Smiles | pKi |
| --- | --- |
| CCCn1c(=O)c2[nH]c(-c3ccc(OCc4noc(-c5ccc(C#N)cc5)n4)cc3)nc2n(CCC)c1=O | 6.68 |
| CCCn1c(=O)c2[nH]c(-c3ccc(OCc4noc(-c5ccc(OC)cc5)n4)cc3)nc2n(CCC)c1=O | 6.60 |
| CCCn1c(=O)c2[nH]c(-c3ccc(OCc4noc(-c5ccccc5OC)n4)cc3)nc2n(CCC)c1=O | 6.90 |
| CCCn1c(=O)c2[nH]c(-c3ccc(OCc4noc(-c5ccc(F)cc5)n4)cc3)nc2n(CCC)c1=O | 6.66 |
| CCCn1c(=O)c2nc(-c3ccc(OCc4nc(-c5ccc(OC)cc5)no4)cc3)[nH]c2n(CCC)c1=O | 5.56 |

**Q:** # query: pKi of entry `CCCn1c(=O)c2nc(-c3ccc(OCc4noc(-c5ccc(C(F)(F)F)cc5)n4)cc3)[nH]c2n(CCC)c1=O`
**A:** 6.59

**Q:** Consider next the molecule `CCCn1c(=O)c2[nH]c(-c3ccc(OCc4noc(-c5ccccc5Cl)n4)cc3)nc2n(CCC)c1=O` in the same way.
**A:** 5.23

----------
# Assay System: Adenosine receptor A2b (Homo sapiens, UniProt P29275)
# Sequence (P29275 whole entry): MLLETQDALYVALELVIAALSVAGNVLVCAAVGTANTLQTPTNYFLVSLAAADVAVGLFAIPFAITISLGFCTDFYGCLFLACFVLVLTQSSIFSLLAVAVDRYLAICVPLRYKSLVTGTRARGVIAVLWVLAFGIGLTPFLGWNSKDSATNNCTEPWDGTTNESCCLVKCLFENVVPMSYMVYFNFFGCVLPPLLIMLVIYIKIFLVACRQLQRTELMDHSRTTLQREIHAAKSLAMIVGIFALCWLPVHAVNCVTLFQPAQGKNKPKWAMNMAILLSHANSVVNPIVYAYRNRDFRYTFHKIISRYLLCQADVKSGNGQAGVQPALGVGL
# Assay Protocol: Binding affinity against Adenosine A2b receptor labeled by [3H]ZM-241385 in membranes prepared from HEK-A2B cells
Readout Name: Ki (µM)
Record the value in µM, omitting the unit from your answer.

**Q:** # query: Ki of entry `CCCn1c(=O)c2[nH]c(-c3ccc(OCc4noc(-c5ccccc5OC)n4)cc3)nc2n(CCC)c1=O`
**A:** 0.127

----------
Listed below: log10 Ki values for each entry.
# Assay System: Adenosine receptor A2b (Homo sapiens, UniProt P29275)
Hi team, quick reminder: these entries are log10 of Ki (nM).

| Structure Smiles | Readout Name | Value |
| --- | --- | --- |
| CCCn1c(=O)c2nc(-c3ccc(OCc4noc(-c5ccccc5C)n4)cc3)[nH]c2n(CCC)c1=O | log10 Ki | 2.64 |
| CCCn1c(=O)c2nc(-c3ccc(OCc4nc(-c5ccccc5Cl)no4)cc3)[nH]c2n(CCC)c1=O | log10 Ki | 3.26 |

**Q:** Record `CCCn1c(=O)c2nc(-c3ccc(OCc4nc(-c5cccc(Cl)c5)no4)cc3)[nH]c2n(CCC)c1=O` : what is its log10 Ki with Adenosine receptor A2b (Homo sapiens, UniProt P29275)?
**A:** 1.62

**Q:** Consider next the compound `CCCn1c(=O)c2nc(-c3ccc(OCc4nc(-c5cccc(F)c5)no4)cc3)[nH]c2n(CCC)c1=O` in the same way.
**A:** 3.16

----------
Listed below: Ki values for each entry.
# Assay System: Adenosine receptor A2b (Homo sapiens)

| Structure Smiles | Ki |
| --- | --- |
| CCCn1c(=O)c2nc(-c3ccc(OCc4nc(-c5cccc(C)c5)no4)cc3)[nH]c2n(CCC)c1=O | > 6.67 µM |

**Q:** Record `CCCn1c(=O)c2nc(-c3ccc(OCc4nc(-c5ccccc5F)no4)cc3)[nH]c2n(CCC)c1=O` : what is its Ki with Adenosine receptor A2b (Homo sapiens)?
**A:** > 2 µM

**Q:** Consider next the molecule `CCCn1c(=O)c2[nH]c(-c3ccc(OCc4nc(-c5ccc(F)cc5)no4)cc3)nc2n(CCC)c1=O` in the same way.
**A:** 0.215 µM

**Q:** Consider next the molecule `CCCn1c(=O)c2nc(-c3ccc(OCc4noc(-c5cccc(C(F)(F)F)c5)n4)cc3)[nH]c2n(CCC)c1=O` in the same way.
**A:** 1.01 µM

**Q:** Consider next the molecule `CCCn1c(=O)c2[nH]c(-c3ccc(OCc4nc(-c5ccccc5OC)no4)cc3)nc2n(CCC)c1=O` in the same way.
**A:** 0.557 µM

**Q:** Consider next the molecule `CCCn1c(=O)c2nc(-c3ccc(OCc4nc(-c5ccccc5C)no4)cc3)[nH]c2n(CCC)c1=O` in the same way.
**A:** 1.12 µM
